target: human ether-à-go-go-related gene (hERG) potassium channel (human, UniProt Q12809); experiment: primary screen, population patch clamp on CHO cells stably expressing hERG; higher = less effect of the substance;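 also: peak tail current of the secondary pulse compared with the same well before compound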
Sequence (Q12809 whole entry, looked up): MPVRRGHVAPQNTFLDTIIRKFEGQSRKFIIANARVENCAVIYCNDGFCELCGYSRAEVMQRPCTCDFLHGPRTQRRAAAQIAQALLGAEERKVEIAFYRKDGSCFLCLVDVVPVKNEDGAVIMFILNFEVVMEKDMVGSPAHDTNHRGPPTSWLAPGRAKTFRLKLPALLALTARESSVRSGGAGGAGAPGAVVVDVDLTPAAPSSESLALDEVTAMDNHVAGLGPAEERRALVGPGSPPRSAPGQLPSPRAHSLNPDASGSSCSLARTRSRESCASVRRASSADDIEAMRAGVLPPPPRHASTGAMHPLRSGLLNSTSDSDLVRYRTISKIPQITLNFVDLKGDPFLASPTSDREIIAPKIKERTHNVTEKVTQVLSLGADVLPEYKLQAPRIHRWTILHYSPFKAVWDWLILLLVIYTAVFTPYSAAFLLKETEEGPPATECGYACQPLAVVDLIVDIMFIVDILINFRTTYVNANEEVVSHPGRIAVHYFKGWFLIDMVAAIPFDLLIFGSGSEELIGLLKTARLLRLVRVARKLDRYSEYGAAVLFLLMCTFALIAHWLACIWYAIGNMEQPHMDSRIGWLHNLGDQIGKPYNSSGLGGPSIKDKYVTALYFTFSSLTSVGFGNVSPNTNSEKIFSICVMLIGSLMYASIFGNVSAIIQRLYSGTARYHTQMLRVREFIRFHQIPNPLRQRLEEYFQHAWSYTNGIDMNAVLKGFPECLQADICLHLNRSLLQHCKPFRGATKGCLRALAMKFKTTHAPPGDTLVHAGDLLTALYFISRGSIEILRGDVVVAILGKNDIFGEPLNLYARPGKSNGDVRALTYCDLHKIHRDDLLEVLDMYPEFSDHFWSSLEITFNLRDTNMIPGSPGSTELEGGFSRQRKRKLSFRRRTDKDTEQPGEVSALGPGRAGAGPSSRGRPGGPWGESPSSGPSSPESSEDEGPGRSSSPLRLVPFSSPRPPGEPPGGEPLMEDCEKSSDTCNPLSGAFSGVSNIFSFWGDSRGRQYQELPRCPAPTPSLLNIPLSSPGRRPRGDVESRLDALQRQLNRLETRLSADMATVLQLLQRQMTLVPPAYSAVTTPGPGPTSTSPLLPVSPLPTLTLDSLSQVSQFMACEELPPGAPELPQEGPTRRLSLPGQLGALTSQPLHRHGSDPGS
Screen size: about 310,000 compounds; about 14,000 (4.5%) showed an effect of 50% or more. The effect is printed as a negative number. This is one part of a sample in which strong results are shown more often than they occur.
Note to self: values exactly at -10% are yes (1). So hERG current change (%, negative = inhibition) at 10uM at or above -10% is yes (1), below is no (0).

Q. hey, is hERG current change (%, negative = inhibition) at 10uM for this one >= -10%? `CCCCN(C)C(=S)Nc1ccc(Oc2ccccc2)cc1`
A. yes (1)

Q. # iterate: CCO.N#CC1=C(N)Oc2c(oc(CO)cc2=O)C1c1ccccc1[N+](=O)[O-] (centres unmarked)
A. yes (1)

Q. # iterate: COc1ccccc1N1CCN(c2nc3ccccc3nc2C(C#N)C(=O)OC(C)C)CC1 (centres unmarked)
A. no (0)

Q. # iterate: `CC(=O)c1ccc(NC(=S)N(CCCN(C)C)Cc2ccccc2)cc1`
A. no (0)

Q. # iterate: `CN(CCOc1ccccc1)C(=S)Nc1ccc(OC(F)F)cc1`
A. no (0)

* * *

Hi there, I'd appreciate the recorded hERG current change (%, negative = inhibition) at 10uM for every entry that follows.
molecular target: human ether-à-go-go-related gene (hERG) potassium channel (human); assay: primary screen, population patch clamp on CHO cells stably expressing hERG; higher = less effect of the substance;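 also: peak tail current of the secondary pulse compared with the same well before compound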
Hit rate of the full screen: of about 310,000 compounds, about 14,000 (4.5%) showed an effect of 50% or more. Effects have a minus sign here. Shown is part of a subset that was picked to be rich in strong results.
Write the value in % as a bare number.

Q. Which hERG current change (%, negative = inhibition) at 10uM reading was recorded for the compound O=C(CC1C(=O)NCCN1Cc1cccc(F)c1F)NC1CCCCCC1 (stereo not shown) ?
A. -10.6

Q. # iterate: `CCOc1ccc(NS(=O)(=O)c2ccc(C(=O)N3CCN(C(C)=O)CC3)cc2)cc1`
A. 26.6

Q. # iterate: `COc1cccc(CN(C)CC(=O)NCc2ccc(F)cc2)c1OC`
A. 6.98

Q. # iterate: `COc1ccccc1CNC(=O)CN(C)Cc1ccc(SC)cc1`
A. -50.8

Q. # iterate: `Cc1sc2ncnc(N)c2c1C`
A. 4.12

Q. # iterate: `Cc1sc2ncnc(Oc3ccc(-n4ccnc4)cc3)c2c1C`
A. -68.4

Q. # iterate: `CS(=O)(=O)N1CCc2cc(S(=O)(=O)N3CCCCC3)ccc21`
A. -14.8

Q. # iterate: `Cc1ccccc1C(=O)Oc1ccc2ccc(O)cc2c1`
A. 14.5

Q. # iterate: `COC(=O)c1cccc(NS(=O)(=O)c2ccc(OC)cc2)c1C`
A. -1.48

Q. # iterate: `CN(c1ccccc1)S(=O)(=O)c1cccc(C(=O)OCC(=O)Nc2ccc3[nH]c(=O)[nH]c3c2)c1`
A. 19.6

* * *

biological target: human ether-à-go-go-related gene (hERG) potassium channel (human); experiment: primary screen, population patch clamp on CHO cells stably expressing hERG; higher = less effect of the substance;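 also: peak tail current of the secondary pulse compared with the same well before compound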
Screen size: about 310,000 compounds; about 14,000 (4.5%) showed an effect of 50% or more. Effects have a minus sign here. Many of the other results were omitted from the sample, so strong results are more common in it than they were.
Note to self: values exactly at -30% are t. So hERG current change (%, negative = inhibition) at 10uM at or above -30% is t, below is f.

Q. hey, is hERG current change (%, negative = inhibition) at 10uM for this one >= -30%? `O=C(O)Cn1c(=O)c2c(c3ccccc31)CCC2`
A. t

Q. # iterate: `CCN(CC)CC(=O)n1c2c(c3ccccc31)CCCC2`
A. f

Q. # iterate: `COc1ccc2cc3cc(C(=O)NCCN4CCc5ccccc5C4)sc3nc2c1`
A. f

Q. # iterate: `CCOC(=O)C1=C[C@]2(CC)CCCN3CCc4c(n1c1ccccc41)[C@@H]32`
A. f

Q. # iterate: `Cn1c(=O)c2[nH]c(COc3ccc(C(C)(C)C)cc3)nc2n(C)c1=O`
A. f

Q. # iterate: `COc1ccc2cc3cc(C(=O)NCCCN4CCc5ccccc5C4)sc3nc2c1`
A. f

Q. # iterate: `COc1ccc2cc3cc(C(=O)NCCN4CCN(Cc5ccccc5)CC4)oc3nc2c1`
A. f

Q. # iterate: `O=C(c1cccc(COc2cccc3ccccc23)c1)N1CCCC1`
A. t

Q. # iterate: NC(=O)C1CCCc2c1n(Cc1ccccc1)c1ccccc21 (stereo not drawn)
A. t

Q. # iterate: `O=C(O)C1=C[C@@H](c2ccccc2)C[C@@H](OCCCCO)O1`
A. t

Q. # iterate: `CCCc1nc2c([nH]1)c(=O)n(C)c(=O)n2C`
A. t

Q. # iterate: `COc1ccc2nc3oc(C(=O)NC4CCN(Cc5ccccc5)CC4)cc3cc2c1`
A. f

Q. # iterate: `CN(C)Cc1nc2c([nH]1)c(=O)n(C)c(=O)n2C`
A. t

Q. # iterate: `Cc1ccc(-c2nnc(SCC(=O)Nc3ccccc3F)o2)cc1`
A. t

Q. # iterate: `Cc1nc2ccc3nc(NC(=O)c4ccc5c(c4)OCCO5)sc3c2s1`
A. t

Q. # iterate: `Cc1nc2c(ccc3nc(NC(=O)c4ccc5c(c4)OCCO5)sc32)s1`
A. f

Q. # iterate: `CCC(=O)N1CCc2cc(S(=O)(=O)CCC(=O)NCCc3ccc(OC)c(OC)c3)ccc21`
A. t

Q. # iterate: `Cc1nc2c(ccc3nc(NC(=O)c4ccc(S(=O)(=O)N(C)C)cc4)sc32)s1`
A. t

Q. # iterate: `COc1ccc2cc3cc(C(=O)NCCCN4CCOCC4)oc3nc2c1`
A. t

Q. # iterate: `COc1ccc2cc3cc(C(=O)NCCN4CCc5ccccc5C4)oc3nc2c1`
A. f

Q. # iterate: `COc1ccc2cc3cc(C(=O)NCCCN4CCC(C)CC4)oc3nc2c1`
A. f
